# measurement-protocol: Oral bioavailability in rat (dose 1 mg/kg i.v. and 2 mg/kg p.o.)
# Format: ADME, organism-based
# condition-context: in vivo
test-readout: bioavailability (%)

{"molecule": "COC(=O)Cc1ccc(CNC(=O)[C@@H]2CSCN2C(=O)CC(N)Cc2ccccc2F)cc1.O=C(O)C(F)(F)F (stereo partly specified)", "bioavailability (%)": 11}

(A) NC(CC(=O)N1CSC[C@H]1C(=O)NCc1ccc(CC(=O)O)cc1)Cc1ccccc1F.O=C(O)C(F)(F)F (stereo partly specified)
(B) NC(CC(=O)N1CCC[C@H]1C(=O)NCc1ccc(C(F)(F)F)cc1)Cc1ccccc1F.O=C(O)C(F)(F)F (stereo partly specified)
Task for the reader: decide whether A or B has the larger bioavailability. Kindly state the label of the option you pick. B
(B: 38%, A: 10%)

###

Quick note: these are IC50 numbers for system: Dipeptidyl peptidase 8 (Homo sapiens)
Sequence (Q6V1X1 whole entry): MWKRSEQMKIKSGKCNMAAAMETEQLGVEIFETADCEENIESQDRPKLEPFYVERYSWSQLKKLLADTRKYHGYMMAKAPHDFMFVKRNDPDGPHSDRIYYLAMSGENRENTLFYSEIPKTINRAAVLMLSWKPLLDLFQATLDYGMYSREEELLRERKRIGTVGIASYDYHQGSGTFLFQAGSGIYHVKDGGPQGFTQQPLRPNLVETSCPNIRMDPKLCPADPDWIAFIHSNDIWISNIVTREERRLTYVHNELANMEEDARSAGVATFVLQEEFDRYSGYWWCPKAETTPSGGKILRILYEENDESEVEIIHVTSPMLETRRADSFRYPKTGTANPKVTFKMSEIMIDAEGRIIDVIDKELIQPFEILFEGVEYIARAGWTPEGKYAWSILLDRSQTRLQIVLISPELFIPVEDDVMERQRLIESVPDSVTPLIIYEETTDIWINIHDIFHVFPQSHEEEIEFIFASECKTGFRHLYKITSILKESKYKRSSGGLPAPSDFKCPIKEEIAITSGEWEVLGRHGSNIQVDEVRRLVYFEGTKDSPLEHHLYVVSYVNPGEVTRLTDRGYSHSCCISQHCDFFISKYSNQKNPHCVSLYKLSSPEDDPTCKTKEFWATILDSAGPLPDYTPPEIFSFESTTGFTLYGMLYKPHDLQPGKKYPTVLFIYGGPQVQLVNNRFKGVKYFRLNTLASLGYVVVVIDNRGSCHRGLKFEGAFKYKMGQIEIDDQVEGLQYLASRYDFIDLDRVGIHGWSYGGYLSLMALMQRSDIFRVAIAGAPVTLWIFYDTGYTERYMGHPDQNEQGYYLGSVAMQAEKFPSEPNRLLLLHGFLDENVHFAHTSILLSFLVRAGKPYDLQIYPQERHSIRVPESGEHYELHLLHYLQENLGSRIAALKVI

{"compound": "NC(CC(=O)N1CCC[C@H]1C(=O)NCc1ccc(C(=O)O)cc1)Cc1ccc(F)c(F)c1.O=C(O)C(F)(F)F (stereo partly drawn)", "IC50": "> 100 µM"}

Using the record for CC(C)[C@@H](Oc1ccc(CNC(=O)[C@@H]2CCCN2C(=O)CC(N)Cc2c(F)c(F)c(F)c(F)c2F)cc1)C(=O)O.O=C(O)C(F)(F)F (stereo partly drawn) , report its IC50. > 100 µM

Using the record for NC(CC(=O)N1CCC[C@H]1C(=O)NCCCCc1nn[nH]n1)Cc1ccccc1F.O=C(O)C(F)(F)F (stereo partly drawn) , report its IC50. > 100 µM

###

# measurement-protocol: Inhibition of Aminopeptidase P
Recorded measurements of IC50, one per entry

Take a look at these entries with their results.
{"molecule": "NC(CC(=O)N1CCC[C@H]1C(=O)NCCCCc1nn[nH]n1)Cc1ccccc1F.O=C(O)C(F)(F)F (stereo not given in full)", "IC50": "> 100 µM"}
{"molecule": "CC(C)[C@@H](Oc1ccc(CNC(=O)[C@@H]2CCCN2C(=O)CC(N)Cc2c(F)c(F)c(F)c(F)c2F)cc1)C(=O)O.O=C(O)C(F)(F)F (stereo not given in full)", "IC50": "> 100 µM"}
{"molecule": "CC(C)[C@@H](Oc1ccc(CNC(=O)[C@@H]2CCCN2C(=O)CC(N)Cc2cc(F)ccc2F)cc1)C(=O)O.O=C(O)C(F)(F)F (stereo not given in full)", "IC50": "> 100 µM"}
{"molecule": "COC(=O)Cc1ccc(CNC(=O)[C@@H]2CSCN2C(=O)CC(N)Cc2ccccc2F)cc1.O=C(O)C(F)(F)F (stereo not given in full)", "IC50": "> 100 µM"}

We now examine a further molecule.
Using the record for NC(CC(=O)N1CCC[C@H]1C(=O)NCc1ccc(C(F)(F)F)cc1)Cc1ccccc1F.O=C(O)C(F)(F)F (stereo not given in full) , report its IC50. > 100 µM

###

# system-name: Dipeptidyl peptidase 4 (Homo sapiens)
# Sequence (P27487 whole entry): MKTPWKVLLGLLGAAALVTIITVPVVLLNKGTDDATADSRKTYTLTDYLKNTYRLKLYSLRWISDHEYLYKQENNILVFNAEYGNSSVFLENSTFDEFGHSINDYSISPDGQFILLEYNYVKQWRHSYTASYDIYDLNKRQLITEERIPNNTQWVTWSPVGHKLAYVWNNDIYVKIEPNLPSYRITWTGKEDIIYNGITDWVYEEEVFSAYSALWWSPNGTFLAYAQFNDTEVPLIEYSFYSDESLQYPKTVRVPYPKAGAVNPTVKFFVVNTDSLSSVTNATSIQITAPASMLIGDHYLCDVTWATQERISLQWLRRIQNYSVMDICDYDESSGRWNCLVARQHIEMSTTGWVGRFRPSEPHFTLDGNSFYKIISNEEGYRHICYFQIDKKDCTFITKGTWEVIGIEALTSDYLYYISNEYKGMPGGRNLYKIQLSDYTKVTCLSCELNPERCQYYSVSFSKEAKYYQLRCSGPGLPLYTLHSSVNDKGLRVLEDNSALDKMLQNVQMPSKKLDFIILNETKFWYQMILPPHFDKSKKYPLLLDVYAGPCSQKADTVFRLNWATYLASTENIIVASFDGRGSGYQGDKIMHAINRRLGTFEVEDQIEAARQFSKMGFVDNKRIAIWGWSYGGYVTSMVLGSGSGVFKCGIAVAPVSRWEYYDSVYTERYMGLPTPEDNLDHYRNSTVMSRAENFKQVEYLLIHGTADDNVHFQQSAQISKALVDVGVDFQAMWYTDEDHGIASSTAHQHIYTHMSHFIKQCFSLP
# measurement-protocol: Inhibition of human recombinant Dipeptidylpeptidase IV
test-readout: IC50 (nM)

Take a look at these entries with their results.
{"molecule": "COC(=O)Cc1ccc(CNC(=O)[C@@H]2CSCN2C(=O)CC(N)Cc2ccccc2F)cc1.O=C(O)C(F)(F)F (stereo not given in full)", "units-text": "nM", "measurement": 87}
{"molecule": "NC(CC(=O)N1CCC[C@H]1C(=O)NCCCCc1nn[nH]n1)Cc1ccccc1F.O=C(O)C(F)(F)F (stereo not given in full)", "units-text": "nM", "measurement": 39}
{"molecule": "NC(CC(=O)N1CCC[C@H]1C(=O)NCc1ccc(C(F)(F)F)cc1)Cc1ccccc1F.O=C(O)C(F)(F)F (stereo not given in full)", "units-text": "nM", "measurement": 721}

(A) CC(C)[C@@H](Oc1ccc(CNC(=O)[C@@H]2CCCN2C(=O)CC(N)Cc2cc(F)ccc2F)cc1)C(=O)O.O=C(O)C(F)(F)F (stereo not given in full)
(B) CC(C)[C@@H](Oc1ccc(CNC(=O)[C@@H]2CCCN2C(=O)CC(N)Cc2c(F)c(F)c(F)c(F)c2F)cc1)C(=O)O.O=C(O)C(F)(F)F (stereo not given in full)
Compare reported IC50 values for A and B . Which is lower? Kindly state the label of the option you pick. A
